# assayed_target: Delta-type opioid receptor (Mus musculus) (UniProt P32300)
# Sequence (P32300 whole entry): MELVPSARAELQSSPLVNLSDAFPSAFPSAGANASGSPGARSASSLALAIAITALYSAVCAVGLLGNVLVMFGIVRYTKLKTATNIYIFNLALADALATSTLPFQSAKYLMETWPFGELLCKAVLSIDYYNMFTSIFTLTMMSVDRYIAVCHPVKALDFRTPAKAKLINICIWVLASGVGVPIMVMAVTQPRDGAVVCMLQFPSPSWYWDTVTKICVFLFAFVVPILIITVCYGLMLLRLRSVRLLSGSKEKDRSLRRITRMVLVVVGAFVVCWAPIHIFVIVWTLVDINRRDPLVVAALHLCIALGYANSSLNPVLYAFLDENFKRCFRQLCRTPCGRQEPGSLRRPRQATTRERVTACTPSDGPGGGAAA
# experimental_protocol: Antagonist potency was determined using D-Ala2, D-Leu5 enkephalin28 (DADLE) at delta-opioid receptor in mouse vas deferens (MVD); IC50 ratio
# Type: functional
List of Ratio values.
I only need the number, thanks.

Worked examples, 8 compounds total:
>>> measured_number("O=[N+]([O-])c1cccc(Cn2c3c(c4ccccc42)C[C@@]2(O)[C@H]4Cc5ccc(O)c6c5[C@@]2(CCN4CC2CC2)[C@H]3O6)c1")
112
>>> measured_number("Oc1ccc2c3c1O[C@H]1c4c(c5ccccc5n4Cc4c(F)c(F)c(F)c(F)c4F)C[C@@]4(O)[C@@H](C2)N(CC2CC2)CC[C@]314")
52
>>> measured_number("Nc1ccc(Cn2c3c(c4ccccc42)C[C@@]2(O)[C@H]4Cc5ccc(O)c6c5[C@@]2(CCN4CC2CC2)[C@H]3O6)cc1")
288
>>> measured_number("Nc1cccc(Cn2c3c(c4ccccc42)C[C@@]2(O)[C@H]4Cc5ccc(O)c6c5[C@@]2(CCN4CC2CC2)[C@H]3O6)c1")
148
>>> measured_number("O=[N+]([O-])c1ccc(Cn2c3c(c4ccccc42)C[C@@]2(O)[C@H]4Cc5ccc(O)c6c5[C@@]2(CCN4CC2CC2)[C@H]3O6)cc1")
38
>>> measured_number("Oc1ccc2c3c1O[C@H]1c4c(c5ccccc5n4Cc4ccccc4)C[C@@]4(O)[C@@H](C2)N(CC2CC2)CC[C@]314")
208
>>> measured_number("O=[N+]([O-])c1ccccc1Cn1c2c(c3ccccc31)C[C@@]1(O)[C@H]3Cc4ccc(O)c5c4[C@@]1(CCN3CC1CC1)[C@H]2O5")
31
>>> measured_number("Nc1ccccc1Cn1c2c(c3ccccc31)C[C@@]1(O)[C@H]3Cc4ccc(O)c5c4[C@@]1(CCN3CC1CC1)[C@H]2O5")
120

Would you kindly look at the next entry?
What does the record list as Ratio for Oc1ccc2c3c1O[C@H]1c4[nH]c5ccccc5c4C[C@@]4(O)[C@@H](C2)N(CC2CC2)CC[C@]314 ?
459

* * *

# assayed_target: Opioid receptors; delta & kappa (Homo sapiens) (UniProt P41145+P41143)
# Sequence (P41143 whole entry, looked up): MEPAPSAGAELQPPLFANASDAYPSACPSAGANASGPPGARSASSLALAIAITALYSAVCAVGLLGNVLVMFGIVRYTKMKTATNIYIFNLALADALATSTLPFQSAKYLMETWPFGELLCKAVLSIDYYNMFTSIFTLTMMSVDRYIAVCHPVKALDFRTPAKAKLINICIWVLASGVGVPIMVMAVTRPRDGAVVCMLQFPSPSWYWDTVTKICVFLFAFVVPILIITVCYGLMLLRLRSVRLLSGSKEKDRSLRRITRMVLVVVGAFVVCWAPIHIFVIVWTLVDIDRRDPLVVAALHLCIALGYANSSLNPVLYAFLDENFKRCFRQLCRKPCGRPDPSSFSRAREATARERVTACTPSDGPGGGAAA
# Sequence (P41145 whole entry, looked up): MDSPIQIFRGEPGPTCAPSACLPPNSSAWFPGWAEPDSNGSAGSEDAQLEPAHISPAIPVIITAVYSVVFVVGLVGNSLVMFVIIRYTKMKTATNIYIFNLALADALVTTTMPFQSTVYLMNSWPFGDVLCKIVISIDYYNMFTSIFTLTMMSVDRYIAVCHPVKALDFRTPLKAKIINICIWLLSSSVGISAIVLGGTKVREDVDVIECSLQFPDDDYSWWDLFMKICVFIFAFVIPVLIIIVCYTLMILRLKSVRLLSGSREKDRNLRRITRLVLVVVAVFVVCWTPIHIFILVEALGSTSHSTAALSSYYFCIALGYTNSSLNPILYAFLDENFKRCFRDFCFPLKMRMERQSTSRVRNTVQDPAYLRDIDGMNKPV
# experimental_protocol: Selectivity ratio is the ratio between delta and kappa receptor
# Format: protein assay
List of Selectivity ratio values.

Worked examples, 5 molecules total:
>>> result("Oc1ccc2c3c1O[C@H]1c4c(c5ccccc5n4Cc4ccccc4)C[C@@]4(O)[C@@H](C2)N(CC2CC2)CC[C@]314")
208
>>> result("O=[N+]([O-])c1ccc(Cn2c3c(c4ccccc42)C[C@@]2(O)[C@H]4Cc5ccc(O)c6c5[C@@]2(CCN4CC2CC2)[C@H]3O6)cc1")
38
>>> result("O=[N+]([O-])c1cccc(Cn2c3c(c4ccccc42)C[C@@]2(O)[C@H]4Cc5ccc(O)c6c5[C@@]2(CCN4CC2CC2)[C@H]3O6)c1")
112
>>> result("Nc1ccccc1Cn1c2c(c3ccccc31)C[C@@]1(O)[C@H]3Cc4ccc(O)c5c4[C@@]1(CCN3CC1CC1)[C@H]2O5")
120
>>> result("Oc1ccc2c3c1O[C@H]1c4c(c5ccccc5n4Cc4c(F)c(F)c(F)c(F)c4F)C[C@@]4(O)[C@@H](C2)N(CC2CC2)CC[C@]314")
52

Request: Selectivity ratio, test system Opioid receptors; delta & kappa (Homo sapiens) (UniProt P41145+P41143), entry Nc1ccc(Cn2c3c(c4ccccc42)C[C@@]2(O)[C@H]4Cc5ccc(O)c6c5[C@@]2(CCN4CC2CC2)[C@H]3O6)cc1
188

Request: Selectivity ratio, test system Opioid receptors; delta & kappa (Homo sapiens) (UniProt P41145+P41143), entry Oc1ccc2c3c1O[C@H]1c4[nH]c5ccccc5c4C[C@@]4(O)[C@@H](C2)N(CC2CC2)CC[C@]314
353

Request: Selectivity ratio, test system Opioid receptors; delta & kappa (Homo sapiens) (UniProt P41145+P41143), entry Nc1cccc(Cn2c3c(c4ccccc42)C[C@@]2(O)[C@H]4Cc5ccc(O)c6c5[C@@]2(CCN4CC2CC2)[C@H]3O6)c1
100

Request: Selectivity ratio, test system Opioid receptors; delta & kappa (Homo sapiens) (UniProt P41145+P41143), entry O=[N+]([O-])c1ccccc1Cn1c2c(c3ccccc31)C[C@@]1(O)[C@H]3Cc4ccc(O)c5c4[C@@]1(CCN3CC1CC1)[C@H]2O5
31

* * *

# assayed_target: Kappa-type opioid receptor (Cavia porcellus)
# experimental_protocol: Antagonist potency was determined using ethylketazocine at kappa-opioid receptor in electrically stimulated guinea pig ileal longitudinal muscle (GPI); IC50 ratio
# Format: functional
parameter: Ratio
I only need the number, thanks.

Worked examples, 5 compounds total:
>>> measured_number("O=[N+]([O-])c1cccc(Cn2c3c(c4ccccc42)C[C@@]2(O)[C@H]4Cc5ccc(O)c6c5[C@@]2(CCN4CC2CC2)[C@H]3O6)c1")
0.6
>>> measured_number("Oc1ccc2c3c1O[C@H]1c4[nH]c5ccccc5c4C[C@@]4(O)[C@@H](C2)N(CC2CC2)CC[C@]314")
1.3
>>> measured_number("Nc1ccc(Cn2c3c(c4ccccc42)C[C@@]2(O)[C@H]4Cc5ccc(O)c6c5[C@@]2(CCN4CC2CC2)[C@H]3O6)cc1")
1.5
>>> measured_number("O=[N+]([O-])c1ccccc1Cn1c2c(c3ccccc31)C[C@@]1(O)[C@H]3Cc4ccc(O)c5c4[C@@]1(CCN3CC1CC1)[C@H]2O5")
0.8
>>> measured_number("O=[N+]([O-])c1ccc(Cn2c3c(c4ccccc42)C[C@@]2(O)[C@H]4Cc5ccc(O)c6c5[C@@]2(CCN4CC2CC2)[C@H]3O6)cc1")
0.4

What does the record list as Ratio for Oc1ccc2c3c1O[C@H]1c4c(c5ccccc5n4Cc4c(F)c(F)c(F)c(F)c4F)C[C@@]4(O)[C@@H](C2)N(CC2CC2)CC[C@]314 ?
0.7

What does the record list as Ratio for Nc1ccccc1Cn1c2c(c3ccccc31)C[C@@]1(O)[C@H]3Cc4ccc(O)c5c4[C@@]1(CCN3CC1CC1)[C@H]2O5 ?
0.9

What does the record list as Ratio for Oc1ccc2c3c1O[C@H]1c4c(c5ccccc5n4Cc4ccccc4)C[C@@]4(O)[C@@H](C2)N(CC2CC2)CC[C@]314 ?
0.4

What does the record list as Ratio for Nc1cccc(Cn2c3c(c4ccccc42)C[C@@]2(O)[C@H]4Cc5ccc(O)c6c5[C@@]2(CCN4CC2CC2)[C@H]3O6)c1 ?
1.5

These measurements were taken from ChEMBL document CHEMBL1127548.
